system: A427 human lung cancer; assay: In vitro anti-tumor activity against A-427 human lung cancer (MTT); assay type: cell-based; conditions: A-427, 72 h, MTT, read-out: IC50
measured_attribute: IC50 (µg/mL)
Kindly provide the numeric value in µg/mL only, without the unit symbol.

Under A427 human lung cancer, report IC50 for CN[C@@H]1CN(c2ccc3c(=O)c(C(=O)O)cn(-c4nccs4)c3n2)C[C@H]1C (relative stereo)
0.0927

Under A427 human lung cancer, report IC50 for CN[C@@H]1CN(c2ccc3c(=O)c(C(=O)O)cn(-c4nccs4)c3n2)C[C@H]1OC (single isomer, unassigned)
0.0925

Under A427 human lung cancer, report IC50 for CN[C@@H]1CN(c2ccc3c(=O)c(C(=O)O)cn(-c4nccs4)c3n2)C[C@H]1OC.Cl (single isomer, unassigned) [Compound 1-3]
0.107

Under A427 human lung cancer, report IC50 for CN[C@@H]1CN(c2ccc3c(=O)c(C=O)cn(-c4nccs4)c3n2)C[C@H]1OC.Cl (relative stereo)
0.0749

Under A427 human lung cancer, report IC50 for CC1(N)CCN(c2ccc3c(=O)c(C(=O)O)cn(-c4nccs4)c3n2)C1 (stereo not drawn)
0.153

Under A427 human lung cancer, report IC50 for O=C(O)c1cn(-c2nccs2)c2nc(N3CCCC3)c(F)cc2c1=O [Compound A, reference compound]
0.854

Under A427 human lung cancer, report IC50 for CNC1CCN(c2ccc3c(=O)c(C(=O)O)cn(-c4nccs4)c3n2)C1 (stereo not drawn)
0.0832

Under A427 human lung cancer, report IC50 for Cl.Nc1cc(N2CCC(N)C2)nc2c1c(=O)c(C(=O)O)cn2-c1nccs1 (stereo not drawn)
0.1

Under A427 human lung cancer, report IC50 for CNC1(C)CCN(c2ccc3c(=O)c(C(=O)O)cn(-c4nccs4)c3n2)C1 (stereo not drawn)
0.194

Under A427 human lung cancer, report IC50 for CN[C@@H]1CN(c2ccc3c(=O)c(C(=O)O)cn(-c4nccs4)c3n2)C[C@@H]1OC (relative stereo)
0.158

Under A427 human lung cancer, report IC50 for CN[C@@H]1CN(c2cc(N)c3c(=O)c(C(=O)O)cn(-c4nccs4)c3n2)C[C@H]1OC (relative stereo)
0.0696

Under A427 human lung cancer, report IC50 for C[C@@H]1CN(c2ccc3c(=O)c(C(=O)O)cn(-c4nccs4)c3n2)C[C@H]1N (relative stereo)
0.0933

Under A427 human lung cancer, report IC50 for CN[C@@H]1CN(c2ccc3c(=O)c(C(=O)O)cn(-c4nccs4)c3n2)C[C@H]1OC.Cl (relative stereo) [Compound 1-1]
0.0871

Under A427 human lung cancer, report IC50 for CCN[C@@H]1CN(c2ccc3c(=O)c(C(=O)O)cn(-c4nccs4)c3n2)C[C@H]1OC (relative stereo)
0.15

Under A427 human lung cancer, report IC50 for Cl.NC1CCN(c2ccc3c(=O)c(C(=O)O)cn(-c4nccs4)c3n2)C1 (stereo not drawn)
0.0588

====

test system: KB human nasopharynx cancer; experiment: In vitro anti-tumor activity against KB human nasopharynx cancer (MTT); assay type: cell-based; settings: KB, 72 h, MTT, read-out: IC50
Please note: IC50 exactly at 0.1 µg/mL is label 0. Only values below 0.1 µg/mL get label 1.

Say whether its IC50 is strictly beneath 0.1 µg/mL. Entry: CN[C@@H]1CN(c2cc(N)c3c(=O)c(C(=O)O)cn(-c4nccs4)c3n2)C[C@H]1OC (relative stereo)
label 1

Say whether its IC50 is strictly beneath 0.1 µg/mL. Entry: Cl.NC1CCN(c2ccc3c(=O)c(C(=O)O)cn(-c4nccs4)c3n2)C1 (stereo not drawn)
label 0

Say whether its IC50 is strictly beneath 0.1 µg/mL. Entry: CN[C@@H]1CN(c2ccc3c(=O)c(C(=O)O)cn(-c4nccs4)c3n2)C[C@@H]1OC (relative stereo)
label 0

Say whether its IC50 is strictly beneath 0.1 µg/mL. Entry: Cl.NC1CCN(c2ccc3c(=O)c(C(=O)O)cn(-c4nc(F)cs4)c3n2)C1 (stereo not drawn)
label 1

Say whether its IC50 is strictly beneath 0.1 µg/mL. Entry: O=C(O)c1cn(-c2nccs2)c2nc(N3CCCC3)c(F)cc2c1=O [Compound A, reference compound]
label 0

Say whether its IC50 is strictly beneath 0.1 µg/mL. Entry: CN[C@@H]1CN(c2ccc3c(=O)c(C(=O)O)cn(-c4nc(F)cs4)c3n2)C[C@H]1OC (relative stereo)
label 0

Say whether its IC50 is strictly beneath 0.1 µg/mL. Entry: CN[C@@H]1CN(c2ccc3c(=O)c(C(=O)O)cn(-c4nccs4)c3n2)C[C@H]1OC (single isomer, unassigned)
label 1

Say whether its IC50 is strictly beneath 0.1 µg/mL. Entry: CN[C@@H]1CN(c2ccc3c(=O)c(C=O)cn(-c4nccs4)c3n2)C[C@H]1OC.Cl (relative stereo)
label 0

Source listed as patent US5817669A.
